metric-name: melting point

Sample answers from the record:
compound: CC(C)C=c1c(=O)[nH]c(=Cc2ccccc2)c(=O)n1CCN1CCCC1 [Compound 14c]
melting point: 158 to 162 °C

compound: C=CCn1c(=O)/c(=C/c2ccccc2)[nH]c(=O)/c1=C/C(C)C [Compound 13e]
melting point: 115 to 119 °C

compound: CC(C)/C=c1\[nH]c(=O)/c(=C/c2ccccc2)[nH]c1=O [Compound 13f]
melting point: 243 to 246 °C

// moving on: another record for melting point
Q: Please look up its melting point: CC(C)=CCn1c(=O)/c(=C/C(C)C)[nH]c(=O)/c1=C/c1ccccc1 [Compound 13c]
A: 175 to 178 °C
